Test: qHTS for differential inhibitors of proliferation of Plasmodium falciparum line GB4 (AID 1816);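 further: parasite growth measured after 72 h incubation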; further: potency means the concentration at half of the fitted maximal effect
Conditions: Plasmodium falciparum GB4 proliferation inhibition; series mostly up to 28.7 µM
Inconclusive results are not listed. Calls of active or inactive are those of the source. The call rests on the fitted dose curve; in most records, active means well fitted curve in the direction sought with a large enough effect; inconclusive means small, poorly fitted or top-dose-only effect, or another doubt; inactive means no such curve, though single readings can be large or run the other way.
measured_parameter: Potency

Sample answers from the record:
> print(dat)
                                   molecule            result
1               CN[C@@H](C)[C@H](O)c1ccccc1    10 µM (active)
2  c1ccc(CCCN2CCN(CCOC(c3ccccc3)c3ccccc3)CC2)cc1  7.08 µM (active)
3                     C[C@@H](N)Cc1cnc[nH]1          inactive
4  Cc1nc(-c2ccc(-c3ccc(C(=O)N4CCc5cc6c(cc54)C4(CCN(C)CC4)CO6)cc3)c(C)c2)no1  11.2 µM (active)
5        NC1CC1c1ccccc1 (centres undefined)    10 µM (active)
6   COc1cc(C(O)CN)ccc1O (centres undefined)          inactive

Request: Given the entry NC(=O)CN1CC(O)CC1=O (centres undefined) , report its measured Potency.
Result: inactive

Request: Given the entry NC(N)=NOCCC(N)C(=O)O (centres undefined) , report its measured Potency.
Result: inactive

Request: Given the entry C=CCN1CC[C@]23CCCCC2[C@H]1Cc1ccc(O)cc13 (some centres undefined) , report its measured Potency.
Result: 11.2 µM (active)

Request: Given the entry `Cc1nccc2c1[nH]c1ccccc12` , report its measured Potency.
Result: 12.6 µM (active)

Request: Given the entry `O=C(O)CC[N+](=O)[O-]` , report its measured Potency.
Result: inactive

Request: Given the entry CS(=N)(=O)CC[C@H](N)C(=O)O (some centres undefined) , report its measured Potency.
Result: inactive

Request: Given the entry `C[C@]12N[C@H](Cc3ccccc31)c1ccccc12` , report its measured Potency.
Result: 1.78 µM (active)

Request: Given the entry `NCc1cc(=O)[nH]o1` , report its measured Potency.
Result: inactive

====

System: CRL-7250
Assay: qHTS assay to identify novel small-molecules to repurpose for Merkel cell carcinoma treatment (AID 1296009); further: nearly all actives have a fitted effect of over 60% in size
Conditions: MCC and control cell lines, CellTiter-Glo viability, 72 h; at 44.8 µM (top of the series) unless noted
Description: MCC is a rare and aggressive neuroendocrine skin cancer with limited treatment options. Approximately 80% of MCCs have the Merkel cell polyomavirus (MCPyV) DNA integrated into the host genome (virus-positive: VP-MCC) and viral oncogenes drive oncogenesis. The remaining MCCs are virus-negative (VN-MCC) and are caused by UV mutagenesis. […] Using cell viability as a readout (CellTiter-Glo assay) we found both overlapping and distinct drugs that can be repurposed for the treatment of VP-MCC and VN-MCC. […]
Inconclusive results are not listed. The source made the active and inactive calls. Calls come from the whole dose curve; as a rule, active = well fitted inhibition curve with a large enough effect; inconclusive = small, poorly fitted or top-dose-only effect; inactive = flat fitted curve, though single readings scatter.
measured_parameter: outcome

Sample answers from the record:
> print(dat)
                                   molecule                 result
1  Cc1nnc(C(C)C)n1C1CC2CCC(C1)N2CC[C@H](NC(=O)C1CCC(F)(F)CC1)c1ccccc1 (stereo not given in full)               inactive
2  COC1=C[C@@H]2[C@@H]3Cc4ccc(OC)c(O)c4[C@]2(CCN3C)CC1=O               inactive
3  CCN1C[C@]2(OC(=O)c3ccccc3NC(C)=O)CC[C@H](OC)[C@@]34[C@H]5CC6[C@@H](OC)C[C@](O)(C(C[C@@H]23)[C@@H]14)[C@@]5(O)[C@@H]6OC               inactive
4  Cc1cccc(Nc2nc(N[C@@H]3CCCC[C@H]3N)ncc2C(N)=O)c1               inactive
5  O=C(C=Cc1ccc(/C=C/C(=O)Nc2ccc(C3=NCCN3)cc2)cc1)Nc1ccc(C2=NCCN2)cc1               inactive
6  CC(C)CCCC(C)CCCC(C)CCCCC(C)CCCC(C)CCCC(C)C (stereo not given)               inactive
7  CCOC(=O)[C@@H](N)CCC(=O)N[C@@H](CSCc1ccccc1)C(=O)N[C@@H](C(=O)OCC)c1ccccc1               inactive
8  CC(C)[C@H](CO)Nc1nc(Nc2ccc(C(=O)O)c(Cl)c2)c2ncn(C(C)C)c2n1  inactive [at 17.4 µM]

Now look at this one.
Request: Given the entry `C[C@@H]1CN(c2c(F)c(N)c3c(=O)c(C(=O)O)cn(C4CC4)c3c2F)C[C@H](C)N1` , report its measured outcome.
Result: inactive [at 17.4 µM]
